experiment: label from the status in PepcDB records
Measured attribute: protein production

MNNLPLLNDLRVFMLVARRAGFAAAAEELGVSPAFVSKRVSLLEQTLNVMLLHRTTRRVTITEEGERIYEWAQRILQDVDEMMDELSDVRQVPQGTLRIISSFGFGRRVVAPALSALALQYPQLELRFDVQDRLVDLVNEGVDLDIRVGDDIAPNLIARQLAANHRVLCASPQFLARHAPPKQLSDLAALPCLVIKERDHPFGVWQLHSKEGQHAIKVTGPLSSNHGEIVHQWCLDGQGIALRSWWDVRENIASGHLVQVLPDYWQPANVWAVYVSRLATSAKIRTTVEFLRHYFQLHYPQHEPTASAVGRGD : failed
MSETELRKRQAQFTRELHGDDIGKKTGLSALMSKNNSAQKEAVQKYLRNWDGRTDKDAEERRLEDYNEATHSYYNVVTDFYEYGWGSSFHFSRFYKGESFAASIARHEHYLAYKAGIQRGDLVLDVGCGVGGPAREIARFTGCNVIGLNNNDYQIAKAKYYAKKYNLSDQMDFVKGDFMKMDFEENTFDKVYAIEATCHAPKLEGVYSEIYKVLKPGGTFAVYEWVMTDKYDENNPEHRKIAYEIELGDGIPKMFHVDVARKALKNCGFEVLVSEDLADNDDEIPWYYPLTGEWKYVQNLANLATFFRTSYLGRQFTTAMVTVMEKLGLAPEGSKEVTAALENAAVGLVAGGKSKLFTPMMLFVARKPENAETPSQTSQEATQ : failed
MKFSKLADQVWGEEPDDQVRSFVFMSNLDAQETANTMDVSVSVERIHADLCGNTELASELHYTPDEWDEAQGWVKINYPLIDDTASASLDVVLDATFQPLPGQPFEGEALTLIDALLHHAENVAASNPWKRTTFHTAHMHPPGSNADCDYCLVLQRRGYVKAHEEIQQTIPLPSGDWSAGEFTVVDVEGTAFPSALIPSIVELQHRAALDVPHGNLSVAPAQWDEHRLAQQSERILKTGTKLFTVLFAEGSTVAAMSSIAIPPGSNPDIAEQGLTIVHPDFRGRGLGTAVKLAGLSLLSRCHPEIQRVATSNAVDNHAMLAINRSIGATEIARTTLWEKKL : failed

---

experiment: label from the status in PepcDB records
Measured attribute: protein production

MSLDKVLEDEVVEDTGESQVFNLLNPEFVDFDTCLDPITNELPTSETTKPAGELRREKTPAKKGNSNSSSVDHRFTSASRAFTQKKLDDLKSLFVSLASKSHSNDQYVSYPVFQEYFGLSGSLGERIFDMVTQHRKDDKMTFEDLVIAKMTFEDLVIAKVHT : failed
MARPRDRQKLDAVKVVETLDNLHARVSERFPASGLAMVCARLADTGRQTAARARRIGRPYLLLRALVVLIIVGGVALEFALAWRLDWSAALRAREGFDLAQGLEAAINLALLSGAAAWFLSSLERRWKQQRVQVALHELRSFCHVIDMHQLTKDPSVILGPRTRHSPPREMSNFQLSRYLDYCAEMLALTAKLAALYAGETDDPVIIAAVNDIETLASDLGRKIWQKIMILGQLNEAAAAQA : failed
MKTVLAFGDSLTWGADPATGLRHPVEHRWPDVLEAELAGKAKVHPEGLGGRTTCYDDHAGPACRNGARALEVALSCHMPLDLVIIMLGTNDIKPVHGGRAEAAVSGMRRLAQIVETFIYKPREAVPKLLIVAPPPCVAGPGGEPAGGRDIEQS : not failed
SASKRWSPPRGIHFTVEEGDLGFTLRGNTPVQVHFLDPHCSASLAGAKEGDYIVSIQGVDCKWLTVSEVMKLLKSFGGEEVEMKVVSLLDSTSSMHNK : not failed
MDRLNQIQIILVETSLSANIGSAARAMKTMGLSNLRLVRPKNPLDEQATALAAGAKNILDNAQIFNTFDAAIADCQLIIGTSARLRHLQSTLVEPRECGKLIINNTNQHKIALIFGRERIGLTNEELLKCHYHLNVPTNPEYESLNLAMAVQLACYEIRMAWLELQKKPIIQPLTEEKNYPTAAAMAHFFDHTERL : not failed

Q: So what's the measured protein production for this one? MEVKMPFVVFVKRSVRFPGKHSYMIGGKSLLEIIVSKLSNIGKVYVFTKDKDIICNGCSIEFDTTNGIITDSVLAAIDKFGTFFAVAGDMPLIKPELVSKMLSQYKGSPLFPRHMDGMLEPLFGIYTEDLYNALKEYLDKGGESLHAFLLTQPLQYYDIGSDDEVNFININYKSDIEKYRDLLVQLLEHHHHHH
A: not failed

Q: So what's the measured protein production for this one? TYHRLALQRENASLNPVGQMVAVNGYKISVFVKGQGSQTLVFLSGAGTASPILDFKDVYDGFSKEYKIVVVERADYGYSEDTSKSRDVSVILSETRQSLAKSQVSGPYIILSHSMASLETLLWQENYPSEVKAVVCLDWAFPESYFQLKRHPQMLRLARWESQLGLLRLLPRQLYMPNENLSDSDRRLYQEIAYRQLLSQAMLNESLCAKENDKKVNSTSIKSQMPVLLMVSNGKGTGFGQEQWRHYATSFAKGQKNMEVTYYDSPHYFYHYQTKEMIRSIEEFVQE
A: failed
